Hey, just so you know, these numbers are from patent US5807535A.

Parameter tissue uptake at 5 min: see the listing below.
# test.description: Biodistribution of 99mTc complexes in rats
# Assay type: in vivo, Australian Albino Wistar Rats
# condition.description: rat, kidneys, rats, 5 min, read-out: biodistribution kidneys
# Protocol: A typical method of radiolabelling of the chelator was achieved by dissolving the chelator in a basic solution of saline. The pH was then adjusted to approx. 6 with HCl. Excess stannous chloride was added to the resultant solution followed by one equivalent volume of sodium ^99m TcO4 (10-50 mCi/ml). Final concentration of the chelator was approx. 1 mg/ml. The efficacy of labelling was determined by ITLC-SG. For each product only one main radiochemical species was observed. […]
# value in %ID/g; strip the unit string

# count of solved cases: 4
test.smiles: O=C(O)CN(CCN(CC(=O)O)CC(=O)Nc1ccc(Cl)cc1O)CC(=O)Nc1ccc(Cl)cc1O
unit.spec: %ID/g
value.observed: 7.26
//
test.smiles: Nc1ccc(O)c(NC(=O)CN(CCN(CC(=O)O)CC(=O)Nc2cc(N)ccc2O)CC(=O)O)c1
unit.spec: %ID/g
value.observed: 6.04
//
test.smiles: O=C(O)CN(CCN(CC(=O)O)CC(=O)Nc1cc([N+](=O)[O-])ccc1O)CC(=O)Nc1cc([N+](=O)[O-])ccc1O
unit.spec: %ID/g
value.observed: 3
//
test.smiles: CC(C)(C)c1ccc(O)c(NC(=O)CN(CCN(CC(=O)O)CC(=O)Nc2cc(C(C)(C)C)ccc2O)CC(=O)O)c1
unit.spec: %ID/g
value.observed: 3.89

Proceeding to the next compound to report its tissue uptake at 5 min.
Lookup: Look at this compound and give its reported tissue uptake at 5 min. O=C(O)CN(CCN(CC(=O)O)CC(=O)Nc1ccccc1O)CC(=O)Nc1ccccc1O
Found: 2.87

* * *

# test.description: Biodistribution of 99mTc complexes in mice
# Assay type: in vivo, Balb/c mice
# condition.description: 5 min
In this section we review reported biodistribution lungs values for a set of compounds.
Answer with a number only, understood to be in % Injected dose.

compound: O=C(O)CN(CCN(CC(=O)O)CC(=O)Nc1ccc(Cl)cc1O)CC(=O)Nc1ccc(Cl)cc1O [Compound 2]
value.observed: 0.72
--
compound: CC(C)(C)c1ccc(O)c(NC(=O)CN(CCN(CC(=O)O)CC(=O)Nc2cc(C(C)(C)C)ccc2O)CC(=O)O)c1 [Compound 4]
value.observed: 0.68
--
compound: Cc1cc(C)c(O)c(NC(=O)CN(CCN(CC(=O)O)CC(=O)Nc2cc(C)cc(C)c2O)CC(=O)O)c1 [Compound 6]
value.observed: 0.69

# evaluate next
Lookup: Which biodistribution lungs reading was recorded for the compound O=C(O)CN(CCN(CC(=O)O)CC(=O)Nc1ccccc1O)CC(=O)Nc1ccccc1O [Compound 1] ?
Found: 0.77

* * *

# test.description: Biodistribution of 99mTc complexes in mice
# Assay type: in vivo, Balb/c mice
# condition.description: 10 min
Classify: yes when biodistribution liver is strictly less than 6 % Injected dose; no when biodistribution liver is not.

Solved cases below.
test.smiles: CC(C)(C)c1ccc(O)c(NC(=O)CN(CCN(CC(=O)O)CC(=O)Nc2cc(C(C)(C)C)ccc2O)CC(=O)O)c1
category: no
//
test.smiles: Cc1cc(C)c(O)c(NC(=O)CN(CCN(CC(=O)O)CC(=O)Nc2cc(C)cc(C)c2O)CC(=O)O)c1
category: no
//
test.smiles: Nc1ccc(O)c(NC(=O)CN(CCN(CC(=O)O)CC(=O)Nc2cc(N)ccc2O)CC(=O)O)c1
category: yes

Shifting focus to the compound that follows.
Lookup: # strict comparison: is reported biodistribution liver < 6 % Injected dose? input = O=C(O)CN(CCN(CC(=O)O)CC(=O)Nc1ccc(Cl)cc1O)CC(=O)Nc1ccc(Cl)cc1O
Found: no
